# reported LD50; entries follow
# ASSAY NAME: Acute toxicity, intravenous (once), ddY mice
# Format: in vivo
# CONDITION DETAILS: mouse, in vivo, iv, formulated per Preparation Example
PROPERTY MEASURED: LD50

• COC1C(O)C(C)OC(OC2C(Oc3cccc4c(OC(=O)CCNC(=O)C(Cl)(Cl)Cl)c5c(=O)oc6ccc(C)c7c(=O)oc(c34)c5c67)OC(C)C3OC(C)(C)OC32)C1O (centres unmarked) = ≥ 100 mg/kg
• COC1C(O)C(C)OC(OC2C(Oc3cccc4c(OC(=O)CCCCCNC(=O)C(F)(F)F)c5c(=O)oc6ccc(C)c7c(=O)oc(c34)c5c67)OC(C)C3OC(c4ccc(F)cc4)OC32)C1O (centres unmarked) = ≥ 30 mg/kg
• COC1C(O)C(C)OC(OC2C(Oc3cccc4c(OC(=O)CCNC=O)c5c(=O)oc6ccc(C)c7c(=O)oc(c34)c5c67)OC(C)C3OC(c4c(F)c(F)c(F)c(F)c4F)OC32)C1O (centres unmarked) = ≥ 40 mg/kg
• COC1C(O)C(C)OC(OC2C(Oc3cccc4c(OC(=O)CCCCCNC(=O)OCc5ccccc5)c5c(=O)oc6ccc(C)c7c(=O)oc(c34)c5c67)OC(C)C3OC(c4ccccc4)OC32)C1O (centres unmarked) = ≥ 40 mg/kg
• COC1C(O)C(C)OC(OC2C(Oc3cccc4c(OC(=O)CCNC(=O)C(Cl)(Cl)Cl)c5c(=O)oc6ccc(C)c7c(=O)oc(c34)c5c67)OC(C)C3OC(c4ccccc4)OC32)C1O (centres unmarked) = ≥ 40 mg/kg

* * *

# ASSAY NAME: Acute toxicity, intravenous (once), ddY mice
# Assay type: in vivo
# CONDITION DETAILS: mouse, in vivo, iv, formulated per Preparation Example
PROPERTY MEASURED: LD50

• CCC(CN(C)C)C(=O)Oc1c2cccc(OC3OC(C)C4OC(c5ccccc5)OC4C3OC3OC(C)C(O)C(OC)C3O)c2c2oc(=O)c3c(C)ccc4oc(=O)c1c2c43 (centres unmarked) = ≥ 30 mg/kg
• COC1C(O)C(C)OC(OC2C(Oc3cccc4c(OC(=O)CC(C)NC(=O)C(F)(F)F)c5c(=O)oc6ccc(C)c7c(=O)oc(c34)c5c67)OC(C)C3OC(C)(C)OC32)C1O (centres unmarked) = ≥ 100 mg/kg
• CCC1(C)O[C@H]2[C@@H](O1)[C@@H](C)O[C@@H](Oc1cccc3c(OC(=O)CC(C)NC(=O)C(F)(F)F)c4c(=O)oc5ccc(C)c6c(=O)oc(c13)c4c56)[C@@H]2O[C@H]1O[C@H](C)[C@H](O)[C@H](OC)[C@H]1O (some centres unmarked) = ≥ 100 mg/kg
• COC1C(O)C(C)OC(OC2C(Oc3cccc4c(OC(=O)CCCNC(=O)C(F)(F)F)c5c(=O)oc6ccc(C)c7c(=O)oc(c34)c5c67)OC(C)C3OC(c4ccc(F)cc4)OC32)C1O (centres unmarked) = ≥ 40 mg/kg
• CCCCCC(=O)Oc1c2cccc(OC3OC(C)C4OC(c5ccccc5)OC4C3OC3OC(C)C(O)C(OC)C3O)c2c2oc(=O)c3c(C)ccc4oc(=O)c1c2c43 (centres unmarked) = ≥ 80 mg/kg

* * *

# reported LD50; entries follow
# ASSAY NAME: Acute toxicity, intravenous (once), ddY mice
# Format: in vivo
# CONDITION DETAILS: mouse, in vivo, iv, formulated per Preparation Example
PROPERTY MEASURED: LD50

* COC1C(O)C(C)OC(OC2C(Oc3cccc4c(OC(=O)CCNC(=O)c5ccccc5)c5c(=O)oc6ccc(C)c7c(=O)oc(c34)c5c67)OC(C)C3OC(C)(C)OC32)C1O (stereo not shown) [Compound No. 50] | ≥ 100 mg/kg
* COC1C(O)C(C)OC(OC2C(Oc3cccc4c(OC(=O)CCNC=O)c5c(=O)oc6ccc(C)c7c(=O)oc(c34)c5c67)OC(C)C3OC(c4ccc(Cl)cc4Cl)OC32)C1O (stereo not shown) [compound 93] | ≥ 80 mg/kg
* COC1C(O)C(C)OC(OC2C(Oc3cccc4c(OC(=O)C(Cc5ccccc5)NC(=O)OCc5ccccc5)c5c(=O)oc6ccc(C)c7c(=O)oc(c34)c5c67)OC(C)C3OC(c4ccc(Cl)cc4)OC32)C1O (stereo not shown) [compound 127] | ≥ 40 mg/kg
* COC1C(O)C(C)OC(OC2C(Oc3cccc4c(OC(=O)C(C)CN)c5c(=O)oc6ccc(C)c7c(=O)oc(c34)c5c67)OC(C)C3OC(c4cccc(F)c4)OC32)C1O (stereo not shown) [Compound No. 14] | ≥ 30 mg/kg
* CCC(C)C(=O)Oc1c2cccc(OC3OC(C)C4OC5(CCCCC5)OC4C3OC3OC(C)C(O)C(OC)C3O)c2c2oc(=O)c3c(C)ccc4oc(=O)c1c2c43 (stereo not shown) [compound 241] | ≥ 80 mg/kg
* COC1C(O)C(C)OC(OC2C(Oc3cccc4c(OC(=O)CCCCCN)c5c(=O)oc6ccc(C)c7c(=O)oc(c34)c5c67)OC(C)C3OC(c4ccccc4)OC32)C1O (stereo not shown) [Compound No. 19] | ≥ 40 mg/kg
* C/C=C(\C)C(=O)Oc1c2cccc(OC3OC(C)C4OC(c5cccc(C(F)(F)F)c5)OC4C3OC3OC(C)C(O)C(OC)C3O)c2c2oc(=O)c3c(C)ccc4oc(=O)c1c2c43 (stereo not shown) [Compound No. 161] | ≥ 80 mg/kg
* CO[C@H]1[C@@H](O)[C@@H](C)O[C@H](O[C@H]2[C@H](Oc3cccc4c(OC(=O)c5ccc(C(F)(F)F)cc5)c5c(=O)oc6ccc(C)c7c(=O)oc(c34)c5c67)O[C@H](C)[C@@H]3OC(c4ccccc4)O[C@@H]32)[C@@H]1O (stereo partly shown) [compound 195] | ≥ 40 mg/kg
* COC1C(O)C(C)OC(OC2C(Oc3cccc4c(OC(=O)CCN)c5c(=O)oc6ccc(C)c7c(=O)oc(c34)c5c67)OC(C)C3OC(c4cccc(F)c4)OC32)C1O (stereo not shown) [Compound No. 16] | ≥ 40 mg/kg
* COC1C(O)C(C)OC(OC2C(Oc3cccc4c(OC(=O)CCN5CCCC5)c5c(=O)oc6ccc(C)c7c(=O)oc(c34)c5c67)OC(C)C3OC(c4cccc(F)c4)OC32)C1O (stereo not shown) [Compound No. 34] | ≥ 30 mg/kg
